Attribution: paper PMC12377313

Consider the following IC50 values measured on BChE (Homo sapiens).
Reply numerically in nM, unit not repeated.

Record O=C(Cn1cc(COc2ccc(/C=N/N=C/c3ccc(OCc4cn(CC(=O)Nc5ccc(Cl)cc5)nn4)cc3)cc2)nn1)Nc1ccc(Cl)cc1 [Compound 10j] ; system BChE (Homo sapiens); IC50 = 16.4

Record CCc1ccc(NC(=O)Cn2cc(COc3ccc(/C=N/N=C/c4ccc(OCc5cn(CC(=O)Nc6ccc(CC)cc6)nn5)cc4)cc3)nn2)cc1 [Compound 10f] ; system BChE (Homo sapiens); IC50 = 17

Record O=C(Cn1cc(COc2ccc(/C=N/N=C/c3ccc(OCc4cn(CC(=O)Nc5cccc(Cl)c5)nn4)cc3)cc2)nn1)Nc1cccc(Cl)c1 [Compound 10i] ; system BChE (Homo sapiens); IC50 = 15.3

Record COc1ccc(NC(=O)Cn2cc(COc3ccc(/C=N/N=C/c4ccc(OCc5cn(CC(=O)Nc6ccc(OC)cc6OC)nn5)cc4)cc3)nn2)c(OC)c1 [Compound 10e] ; system BChE (Homo sapiens); IC50 = 16.3

Record Cc1ccc(NC(=O)Cn2cc(COc3ccc(/C=N/N=C/c4ccc(OCc5cn(CC(=O)Nc6ccc(C)cc6)nn5)cc4)cc3)nn2)cc1 [Compound 10c] ; system BChE (Homo sapiens); IC50 = 17.1

* * *

- TARGET_ENTITY: AChE (Homo sapiens)
- ASSAY_NAME: biochemical
- Format: biochemical
- CONDITION_NOTES: read-out: IC50 (nM) AChE
MEASURED_METRIC: IC50
Phrase the answer as number then unit, nothing more needed.

Use the examples below as a reference point.
Cc1ccccc1NC(=O)Cn1cc(COc2ccc(/C=N/N=C/c3ccc(OCc4cn(CC(=O)Nc5ccccc5C)nn4)cc3)cc2)nn1 [Compound 10a] :: 163 nM
O=C(Cn1cc(COc2ccc(/C=N/N=C/c3ccc(OCc4cn(CC(=O)Nc5ccc(Cl)cc5)nn4)cc3)cc2)nn1)Nc1ccc(Cl)cc1 [Compound 10j] :: 145 nM
Cc1ccc(NC(=O)Cn2cc(COc3ccc(/C=N/N=C/c4ccc(OCc5cn(CC(=O)Nc6ccc(C)cc6)nn5)cc4)cc3)nn2)cc1 [Compound 10c] :: 164 nM
O=C(Cn1cc(COc2ccc(/C=N/N=C/c3ccc(OCc4cn(CC(=O)Nc5ccc(Br)cc5)nn4)cc3)cc2)nn1)Nc1ccc(Br)cc1 [Compound 10l] :: 148 nM
O=C(Cn1cc(COc2ccc(/C=N/N=C/c3ccc(OCc4cn(CC(=O)Nc5cccc(Cl)c5)nn4)cc3)cc2)nn1)Nc1cccc(Cl)c1 [Compound 10i] :: 164 nM

So, Cc1cccc(NC(=O)Cn2cc(COc3ccc(/C=N/N=C/c4ccc(OCc5cn(CC(=O)Nc6cccc(C)c6)nn5)cc4)cc3)nn2)c1 [Compound 10b] ? Its IC50 was 167 nM

So, O=C(Cn1cc(COc2ccc(/C=N/N=C/c3ccc(OCc4cn(CC(=O)Nc5ccccc5Cl)nn4)cc3)cc2)nn1)Nc1ccccc1Cl [Compound 10h] ? Its IC50 was 118 nM

So, O=C(Cn1cc(COc2ccc(/C=N/N=C/c3ccc(OCc4cn(CC(=O)Nc5ccc(Cl)cc5Cl)nn4)cc3)cc2)nn1)Nc1ccc(Cl)cc1Cl [Compound 10k] ? Its IC50 was 105 nM

So, Cc1cccc(NC(=O)Cn2cc(COc3ccc(/C=N/N=C/c4ccc(OCc5cn(CC(=O)Nc6cccc(C)c6C)nn5)cc4)cc3)nn2)c1C [Compound 10d] ? Its IC50 was 131 nM

So, COc1ccc(NC(=O)Cn2cc(COc3ccc(/C=N/N=C/c4ccc(OCc5cn(CC(=O)Nc6ccc(OC)cc6OC)nn5)cc4)cc3)nn2)c(OC)c1 [Compound 10e] ? Its IC50 was 140 nM

So, CCc1ccc(NC(=O)Cn2cc(COc3ccc(/C=N/N=C/c4ccc(OCc5cn(CC(=O)Nc6ccc(CC)cc6)nn5)cc4)cc3)nn2)cc1 [Compound 10f] ? Its IC50 was 159 nM

So, O=C(Cn1cc(COc2ccc(/C=N/N=C/c3ccc(OCc4cn(CC(=O)Nc5ccccc5F)nn4)cc3)cc2)nn1)Nc1ccccc1F [Compound 10g] ? Its IC50 was 112 nM

* * *

Quick reference for IC50 among some molecules
- TARGET_ENTITY: AChE (Homo sapiens, UniProt P22303)
- Sequence (P22303 32-614): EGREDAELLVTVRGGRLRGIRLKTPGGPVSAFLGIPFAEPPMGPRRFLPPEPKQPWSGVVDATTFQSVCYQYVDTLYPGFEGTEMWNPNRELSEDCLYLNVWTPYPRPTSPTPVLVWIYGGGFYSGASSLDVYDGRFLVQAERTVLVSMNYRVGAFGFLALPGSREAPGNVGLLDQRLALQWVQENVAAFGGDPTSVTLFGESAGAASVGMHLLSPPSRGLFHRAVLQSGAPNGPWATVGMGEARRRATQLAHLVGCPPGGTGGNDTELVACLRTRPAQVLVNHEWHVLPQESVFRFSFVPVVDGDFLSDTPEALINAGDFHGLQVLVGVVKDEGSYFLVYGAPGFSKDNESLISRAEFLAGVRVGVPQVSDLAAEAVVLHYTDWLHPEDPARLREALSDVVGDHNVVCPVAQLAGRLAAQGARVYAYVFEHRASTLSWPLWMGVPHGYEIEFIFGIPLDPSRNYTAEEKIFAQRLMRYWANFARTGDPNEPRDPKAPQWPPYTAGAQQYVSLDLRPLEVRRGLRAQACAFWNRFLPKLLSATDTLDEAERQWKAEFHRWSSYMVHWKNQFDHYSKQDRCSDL
- ASSAY_NAME: biochemical
- Assay type: biochemical
Phrase the answer as number then unit, nothing more needed.

O=C(Cn1cc(COc2ccc(/C=N/N=C/c3ccc(OCc4cn(CC(=O)Nc5ccc([N+](=O)[O-])cc5)nn4)cc3)cc2)nn1)Nc1ccc([N+](=O)[O-])cc1 [Compound 10n] :: 173 nM

With those in mind, consider the next molecule.
Record O=C(Cn1cc(COc2ccc(/C=N/N=C/c3ccc(OCc4cn(CC(=O)Nc5ccccc5[N+](=O)[O-])nn4)cc3)cc2)nn1)Nc1ccccc1[N+](=O)[O-] [Compound 10m] ; system AChE (Homo sapiens, UniProt P22303); IC50 = 157 nM

* * *

Consider the following pIC50 values measured on BChE (Homo sapiens).
Please treat pIC50 as minus the base-10 logarithm of the molar concentration.

So, Cc1ccccc1NC(=O)Cn1cc(COc2ccc(/C=N/N=C/c3ccc(OCc4cn(CC(=O)Nc5ccccc5C)nn4)cc3)cc2)nn1 [Compound 10a] ? Its pIC50 was 7.73

So, O=C(Cn1cc(COc2ccc(/C=N/N=C/c3ccc(OCc4cn(CC(=O)Nc5ccccc5Cl)nn4)cc3)cc2)nn1)Nc1ccccc1Cl [Compound 10h] ? Its pIC50 was 7.71

So, Cc1cccc(NC(=O)Cn2cc(COc3ccc(/C=N/N=C/c4ccc(OCc5cn(CC(=O)Nc6cccc(C)c6)nn5)cc4)cc3)nn2)c1 [Compound 10b] ? Its pIC50 was 7.74

* * *

Quick reference for IC50 among some molecules
- TARGET_ENTITY: UniProt:P53341
- Sequence (P53341 whole entry): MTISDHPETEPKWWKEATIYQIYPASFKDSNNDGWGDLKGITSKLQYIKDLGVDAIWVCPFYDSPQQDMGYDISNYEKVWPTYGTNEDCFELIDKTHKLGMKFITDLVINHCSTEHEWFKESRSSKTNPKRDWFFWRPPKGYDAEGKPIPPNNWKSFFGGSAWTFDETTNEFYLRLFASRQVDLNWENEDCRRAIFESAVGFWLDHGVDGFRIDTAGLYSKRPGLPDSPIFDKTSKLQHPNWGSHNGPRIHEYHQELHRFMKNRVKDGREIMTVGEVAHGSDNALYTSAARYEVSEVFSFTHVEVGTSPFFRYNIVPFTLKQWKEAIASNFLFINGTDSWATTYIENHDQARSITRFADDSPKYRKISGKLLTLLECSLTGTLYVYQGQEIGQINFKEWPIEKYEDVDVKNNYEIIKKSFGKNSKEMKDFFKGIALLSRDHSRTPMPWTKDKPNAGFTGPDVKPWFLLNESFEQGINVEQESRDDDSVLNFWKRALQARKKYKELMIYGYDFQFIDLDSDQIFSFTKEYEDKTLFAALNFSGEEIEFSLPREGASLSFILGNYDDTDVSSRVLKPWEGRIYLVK
- ASSAY_NAME: α-Glucosidase inhibition assay (p-NPG substrate)
- Type: biochemical, yeast
Reply numerically in nM, unit not repeated.

Use the examples below as a reference point.
COc1ccc(NC(=O)Cn2cc(COc3ccc(/C=N/N=C/c4ccc(OCc5cn(CC(=O)Nc6ccc(OC)cc6OC)nn5)cc4)cc3)nn2)c(OC)c1 [Compound 10e] :: 58.5
O=C(Cn1cc(COc2ccc(/C=N/N=C/c3ccc(OCc4cn(CC(=O)Nc5ccccc5F)nn4)cc3)cc2)nn1)Nc1ccccc1F [Compound 10g] :: 56.7
O=C(Cn1cc(COc2ccc(/C=N/N=C/c3ccc(OCc4cn(CC(=O)Nc5ccc(Cl)cc5)nn4)cc3)cc2)nn1)Nc1ccc(Cl)cc1 [Compound 10j] :: 34.3
O=C(Cn1cc(COc2ccc(/C=N/N=C/c3ccc(OCc4cn(CC(=O)Nc5ccccc5Cl)nn4)cc3)cc2)nn1)Nc1ccccc1Cl [Compound 10h] :: 23.9
CCc1ccc(NC(=O)Cn2cc(COc3ccc(/C=N/N=C/c4ccc(OCc5cn(CC(=O)Nc6ccc(CC)cc6)nn5)cc4)cc3)nn2)cc1 [Compound 10f] :: 66.4

So, Cc1ccc(NC(=O)Cn2cc(COc3ccc(/C=N/N=C/c4ccc(OCc5cn(CC(=O)Nc6ccc(C)cc6)nn5)cc4)cc3)nn2)cc1 [Compound 10c] ? Its IC50 was 67

So, Cc1ccccc1NC(=O)Cn1cc(COc2ccc(/C=N/N=C/c3ccc(OCc4cn(CC(=O)Nc5ccccc5C)nn4)cc3)cc2)nn1 [Compound 10a] ? Its IC50 was 43.1

So, Cc1cccc(NC(=O)Cn2cc(COc3ccc(/C=N/N=C/c4ccc(OCc5cn(CC(=O)Nc6cccc(C)c6C)nn5)cc4)cc3)nn2)c1C [Compound 10d] ? Its IC50 was 71.2

So, O=C(Cn1cc(COc2ccc(/C=N/N=C/c3ccc(OCc4cn(CC(=O)Nc5cccc(Cl)c5)nn4)cc3)cc2)nn1)Nc1cccc(Cl)c1 [Compound 10i] ? Its IC50 was 45.8

* * *

Quick reference for IC50 among some molecules
- Test system: HEK293 embryonic kidney cells
- ASSAY_NAME: MTT cell viability assay, HEK293
- Type: cell-based
- CONDITION_NOTES: Homo sapiens, HEK293, 24 h, read-out: IC50 (μM) HEK-293
Reply numerically in µM, unit not repeated.

O=C(Cn1cc(COc2ccc(/C=N/N=C/c3ccc(OCc4cn(CC(=O)Nc5ccccc5[N+](=O)[O-])nn4)cc3)cc2)nn1)Nc1ccccc1[N+](=O)[O-] [Compound 10m] :: 46.5

With those in mind, consider the next molecule.
So, O=C(Cn1cc(COc2ccc(/C=N/N=C/c3ccc(OCc4cn(CC(=O)Nc5ccc([N+](=O)[O-])cc5)nn4)cc3)cc2)nn1)Nc1ccc([N+](=O)[O-])cc1 [Compound 10n] ? Its IC50 was 38.4

* * *

Quick reference for IC50 among some molecules
- TARGET_ENTITY: BChE (Homo sapiens, UniProt P06276)
- Sequence (P06276 29-602): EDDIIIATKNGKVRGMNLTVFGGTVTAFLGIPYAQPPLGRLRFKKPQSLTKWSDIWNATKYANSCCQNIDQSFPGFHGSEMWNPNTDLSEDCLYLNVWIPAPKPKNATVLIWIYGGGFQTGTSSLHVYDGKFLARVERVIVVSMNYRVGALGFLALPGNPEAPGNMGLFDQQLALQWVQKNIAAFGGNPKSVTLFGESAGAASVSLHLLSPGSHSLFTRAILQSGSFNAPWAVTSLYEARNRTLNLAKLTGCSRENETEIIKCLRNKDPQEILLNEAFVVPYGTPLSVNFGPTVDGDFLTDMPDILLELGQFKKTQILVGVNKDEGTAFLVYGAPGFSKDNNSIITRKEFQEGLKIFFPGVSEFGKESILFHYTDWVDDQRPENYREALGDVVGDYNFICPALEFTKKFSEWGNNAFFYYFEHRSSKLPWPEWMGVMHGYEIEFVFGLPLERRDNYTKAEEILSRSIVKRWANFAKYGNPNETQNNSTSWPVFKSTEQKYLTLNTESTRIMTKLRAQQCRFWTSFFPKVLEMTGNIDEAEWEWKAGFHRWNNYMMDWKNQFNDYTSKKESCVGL
Reply numerically in nM, unit not repeated.

Use the examples below as a reference point.
Cc1cccc(NC(=O)Cn2cc(COc3ccc(/C=N/N=C/c4ccc(OCc5cn(CC(=O)Nc6cccc(C)c6C)nn5)cc4)cc3)nn2)c1C [Compound 10d] :: 14.9
O=C(Cn1cc(COc2ccc(/C=N/N=C/c3ccc(OCc4cn(CC(=O)Nc5ccccc5F)nn4)cc3)cc2)nn1)Nc1ccccc1F [Compound 10g] :: 12.4
O=C(Cn1cc(COc2ccc(/C=N/N=C/c3ccc(OCc4cn(CC(=O)Nc5ccc(Cl)cc5Cl)nn4)cc3)cc2)nn1)Nc1ccc(Cl)cc1Cl [Compound 10k] :: 10.1

So, O=C(Cn1cc(COc2ccc(/C=N/N=C/c3ccc(OCc4cn(CC(=O)Nc5ccc([N+](=O)[O-])cc5)nn4)cc3)cc2)nn1)Nc1ccc([N+](=O)[O-])cc1 [Compound 10n] ? Its IC50 was 13.9

So, O=C(Cn1cc(COc2ccc(/C=N/N=C/c3ccc(OCc4cn(CC(=O)Nc5ccccc5[N+](=O)[O-])nn4)cc3)cc2)nn1)Nc1ccccc1[N+](=O)[O-] [Compound 10m] ? Its IC50 was 16.9

So, O=C(Cn1cc(COc2ccc(/C=N/N=C/c3ccc(OCc4cn(CC(=O)Nc5ccc(Br)cc5)nn4)cc3)cc2)nn1)Nc1ccc(Br)cc1 [Compound 10l] ? Its IC50 was 16.4
